Below are compounds with their Ki as measured on Histamine H3 receptor (Homo sapiens).
Sequence (Q9Y5N1 whole entry): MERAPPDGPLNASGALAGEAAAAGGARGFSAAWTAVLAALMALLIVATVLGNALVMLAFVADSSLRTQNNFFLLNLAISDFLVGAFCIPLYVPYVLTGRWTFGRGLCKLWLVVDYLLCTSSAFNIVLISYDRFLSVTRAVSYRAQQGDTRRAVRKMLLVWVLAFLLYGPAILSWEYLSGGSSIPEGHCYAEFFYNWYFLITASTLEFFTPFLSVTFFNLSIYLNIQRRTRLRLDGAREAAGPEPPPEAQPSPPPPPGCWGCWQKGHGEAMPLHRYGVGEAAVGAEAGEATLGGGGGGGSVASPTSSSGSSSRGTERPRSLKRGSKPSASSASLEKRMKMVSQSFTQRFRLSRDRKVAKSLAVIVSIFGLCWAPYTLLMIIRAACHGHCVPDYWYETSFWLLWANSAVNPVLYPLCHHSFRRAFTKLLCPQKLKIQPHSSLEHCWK
attribute-measured: Ki (nM)

{"columns": ["entry-smiles", "attribute-measured", "units-label", "value"],
 "data": [
  ["CS(=O)(=O)N1CCC(Oc2ccc3c(c2)CCC2(CCN(C4CCC4)CC2)O3)CC1", "Ki", "nM", 7]
]}

1 = CC(=O)N1CCC(Oc2ccc3c(c2)CCC2(CCN(C4CCC4)CC2)O3)CC1
2 = O=C(C1CC1)N1CCC(Oc2ccc3c(c2)CCC2(CCN(C4CCC4)CC2)O3)CC1
Query block: For the pair 1 and 2 , which entry has the numerically smaller recorded Ki? I would appreciate it if you answered with the label of your choice.
Result block: 1
